- testDescription: Determination of water solubility in phosphate buffer
- Type: physicochemical
- conditionParameters: aqueous buffer, thermodynamic from solid; phosphate buffer pH 4.5, room temperature, 24 hours
experimentalEndpoint: solubility at 24 h (µg/mL)
A number alone suffices; assume µg/mL.

molecule: CC(C)C(=O)N1CCC[C@H]1C(=O)OCOc1ccc([N+](=O)[O-])c2cccnc12
measureUnit: µg/mL
assayResult: 1050
--
molecule: CCC(CC)C(=O)OC(C)Oc1ccc([N+](=O)[O-])c2cccnc12 (stereo not shown)
measureUnit: µg/mL
assayResult: 7.07
--
molecule: CCC(CC)C(=O)OCOc1ccc([N+](=O)[O-])c2cccnc12
measureUnit: µg/mL
assayResult: 13.1

Alright, here's another molecule for you.
The recorded solubility at 24 h for CC(C)(C)OP(=O)(OCOc1ccc([N+](=O)[O-])c2cccnc12)OC(C)(C)C is 843
